Listed below: IC50 values for each entry.
Target: UniProt P43490
Sequence (P43490 whole entry): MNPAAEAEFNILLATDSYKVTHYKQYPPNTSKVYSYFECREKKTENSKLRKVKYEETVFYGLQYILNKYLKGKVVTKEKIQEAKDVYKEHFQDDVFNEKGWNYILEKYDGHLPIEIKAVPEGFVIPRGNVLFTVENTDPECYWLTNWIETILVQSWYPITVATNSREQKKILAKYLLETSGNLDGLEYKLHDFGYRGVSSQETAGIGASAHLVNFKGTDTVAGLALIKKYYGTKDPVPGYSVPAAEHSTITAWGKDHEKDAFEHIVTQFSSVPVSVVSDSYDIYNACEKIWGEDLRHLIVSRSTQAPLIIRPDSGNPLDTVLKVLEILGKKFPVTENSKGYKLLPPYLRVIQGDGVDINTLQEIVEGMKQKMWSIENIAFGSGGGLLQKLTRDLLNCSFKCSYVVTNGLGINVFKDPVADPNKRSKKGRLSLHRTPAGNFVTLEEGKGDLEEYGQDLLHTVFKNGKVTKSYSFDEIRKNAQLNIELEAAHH
Experiment: Measurement of NamPT inhibitory ability IC50 (NamPT colorimetric assay kit, Abcam ab221819)
Assay type: biochemical
Conditions: NamPT recombinant protein, WST-1 absorbance at 450 nm; class key in μM
measured attribute: IC50

INSERT INTO results (compound_structure_string, measurement) VALUES
  ('O=C(NCc1ccc(-c2nc3ccc(Cl)nc3o2)cc1)c1cnc2nccn2c1', '< 0.05 µM'),
  ('COc1cc2nc(-c3ccc(CNC(=O)c4cnc5nccn5c4)cc3)oc2cc1C', '< 0.05 µM'),
  ('Cc1ccc2nc(-c3ccc(CNC(=O)c4cnc5nccn5c4)nc3)oc2c1', '0.11 to 1 µM'),
  ('O=C(NCc1ccc(-c2nc3cc(S(=O)(=O)c4ccccc4)ccc3o2)cc1)c1cnc2nccn2c1', '< 0.05 µM'),
  ('O=C(NCc1ccc(-c2nc3cnccc3o2)cc1)c1cnc2nccn2c1', '0.11 to 1 µM');
